Reference for the values: patent US20240409531A1

system: PBMCs infected with VSV-G pseudotyped HIV virus (VSV-G/pNLGI-P2A-ΔEnv); experiment: cells; format: cell-based; details: Homo sapiens, PBMC, read-out: TACK EC50 (nM)
Entries annotated with measured EC50
parameter: EC50

>>> df
                                   compound  parameter  experimental_result
0  O=C1Nc2cc(Cn3cnc(C(F)F)cc3=O)c(Cl)cc2[C@@](C#CC2CC2)(C(F)(F)F)O1       EC50                83 nM
1  CC(F)(F)[C@@]1(C#CC2CC2)OC(=O)Nc2cc(Cc3ccnc(N)c3C#N)ccc21       EC50                20 nM
2  COCc1cc(=O)n(Cc2cc3c(cc2Cl)[C@@](C#CC2CC2)(C(F)(F)F)OC(=O)N3)cn1       EC50               128 nM
3  COc1cc(=O)n(Cc2cc3c(cc2Cl)[C@@](C#CC2CC2)(C(F)(F)F)OC(=O)N3)cn1       EC50                63 nM
4  Cc1cc(=O)n(Cc2cc3c(cc2Cl)[C@@](C#CC2CC2)(C(F)(F)F)OC(=O)N3)cn1       EC50                92 nM
5  O=C1Nc2cc(Cn3cccn3)c(F)cc2[C@@](C#CC2CC2)(C(F)(F)F)O1 (single isomer, unassigned) [Example 29A]       EC50               428 nM
6  CC(F)(F)[C@@]1(C#CC2CC2)OC(=O)Nc2cc(Cn3cnccc3=O)c(Cl)cc21       EC50                16 nM
